Origin of the recorded values: PubChem BioAssay (NCI)

Measured TGI, listed per entry.
- Test system: NCI-H226 lung
- ASSAY EXPLANATION: NCI tumour cell line growth inhibition, 48 h

COMPOUND	TGI
Clc1nc(-[n+]2ccc(-c3ccncc3)cc2)nc(Nc2ccccc2)c1Cl	> 100 µM
C=C(C=O)C1CC(=O)C(C(=O)OC)[C@@H]2O[C@@](C)(CC2=O)C[C@@H]2OC(=O)[C@]3(O[C@@H]23)[C@@H](C(=O)OC)C1 (stereo not given in full)	> 100 µM
CC(CN=C(CC(=O)c1ccc(Br)cc1)c1ccccc1)N=C(CC(=O)c1ccc(Br)cc1)c1ccccc1 (stereo not given)	> 100 µM
CC(=O)N(CN1C(=O)CCC1C(=O)O)c1ccccc1 (stereo not given)	> 100 µM
CN1CCn2c(Br)ccc2C1=O	> 100 µM

* * *

Measured TGI, listed per entry.
- Tested on: SN12C renal
- ASSAY EXPLANATION: NCI tumour cell line growth inhibition, 48 h
TEST READOUT: TGI

> print(dat)
                                    compound  test.value
 1  CC1=C(C(=O)OCCc2ccc([N+](=O)[O-])cc2)C(c2ccccc2[N+](=O)[O-])C(C(=O)OC(C)C)=C(C)N1 (configuration not stated)    > 100 µM
 2        CC(=O)/C=C/C=C(\C)CC/C=C(\C)CC(C)C     96.2 µM
 3  COc1ccc(C(O)c2ccc3c(c2)OCO3)cc1 (configuration not stated)    > 100 µM
 4  OCC1OC(n2cnc3cccnc32)CC1O (configuration not stated)    > 100 µM
 5  CC(C)CCC[C@@H](C)[C@H]1CC[C@H]2[C@@H]3CC=C4C[C@@H](OC(=O)c5cccc6c(=O)c7ccccc7[nH]c56)CC[C@]4(C)[C@H]3CC[C@]12C     > 75 µM
 6  CC1(O)C=CC2CCC1C2O (configuration not stated)    > 100 µM
 7                S=c1nc[nH]c2c1ncn2Cc1ccco1    > 100 µM
 8  O=C(c1ccccc1Nc1ccnc(C(F)(F)F)c1)N1CCN(c2cccc(Cl)c2)CC1       45 µM
 9              CCCCCCCCCCCCn1c(C)nc2ccccc21     31.1 µM
10  CCOC(=O)c1ccc(C(=O)C(C(C)=O)C(=O)OC(C)(C)C)n1C (configuration not stated)    > 100 µM
11  Cc1cc(S(=O)(=O)Nc2nnc3c(C(F)(F)F)cc(Cl)cn23)c(S)cc1Cl    > 100 µM
12  COC(=O)C(=O)C1(CCC(C)=O)c2ccccc2-c2ccccc21    > 100 µM
13  COc1ccc(C2OC(=O)c3c2ccc2ccccc32)c(C)c1 (configuration not stated)     88.2 µM
14  C/C1=C\[C@H](C)C[C@H](C)OC(=O)C[C@H](c2ccc(O)cc2)NC(=O)[C@@H](Cc2c(Br)[nH]c3ccccc23)N(C)C(=O)[C@H](C)NC(=O)[C@@H](C)C1   > 45.9 µM
15  C=C1CCC2C3(C)COC(c4ccc(NC(C)=O)cc4)OC3CCC2(C)C1C/C=C1/C(=O)OCC1O (configuration not stated)    > 100 µM
16  COc1ccc(/C(C)=C(\c2ccc(Cl)cc2)c2ccc(OCCN3CCCC3)cc2)cc1     9.63 µM
17  CN1/C(=C\C(I)C(I)C2=[N+](C)c3ccccc3C2(C)C)C(C)(C)c2ccccc21 (configuration not stated)     9.86 µM
18  Cc1cccc(NC(=O)C(=O)C2C(=O)NC(=O)NC2=O)c1C    > 100 µM
19  CCOC1OCCCC1Br (configuration not stated)    > 100 µM
20  O=[N+]([O-])c1cccc([N+](=O)[O-])c1S(=O)(=O)c1ccccc1     12.3 µM
21  CCSc1oc(-c2ccccc2)nc1[P+](c1ccccc1)(c1ccccc1)c1ccccc1     1.23 µM
22  CC(NC(=O)/C(=C/c1ccccc1O)NC(=O)c1ccccc1)C(=O)O (configuration not stated)     48.1 µM
23  CC1(C)O[C@@H](CO)[C@H]([C@@]23OC[C@H]4OC(C)(C)OC4[C@@H]2OC(C)(C)O3)O1 (some centres not stated)    > 100 µM
24  C/C(=N\NC(N)=O)C(CN1CCCCC1)C(c1ccccc1)c1c(O)c2ccccc2oc1=O (configuration not stated)    > 100 µM
25  CC(=O)O[C@H]1C#C/C=C\C#CC[C@@H]2C(=O)N(C(=O)OC(C)(C)C)[C@@H]12   > 71.6 µM
26  Cc1cc(NS(=O)(=O)c2ccc(Nc3c4ccccc4nc4c(C(=O)Nc5ccc(S(=O)(=O)N=C(N)N)cc5)cccc34)cc2)no1    > 100 µM
27  COc1cc(-c2cc(-c3ccc(N(C)C)cc3)nc(N3CCOCC3)c2C#N)cc(OC)c1OC    > 100 µM
